Values from paper PMC4297295

Target: T1, endothelial protein C receptor (EPCR), extracellular domain, biotinylated on the N-terminal BAP tag (human, UniProt Q9UNN8 18-210, biotin attached to the N-terminal BAP tag (BirA))
T1 construct: also called biotinylated recombinant EPCR; ECPR
T1 sequence: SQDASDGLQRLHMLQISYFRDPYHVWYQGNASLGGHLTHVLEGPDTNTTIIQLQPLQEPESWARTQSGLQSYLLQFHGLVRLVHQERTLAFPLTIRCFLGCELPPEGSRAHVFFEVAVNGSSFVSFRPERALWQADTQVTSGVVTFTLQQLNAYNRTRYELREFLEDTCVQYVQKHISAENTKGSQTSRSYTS
Assay: SPR
Conditions: both partners purified
Recorded measurements of kon, one per entry
Entry rule: numbers only, all in M⁻¹ s⁻¹.

CIDRα1.8b domain 1702-3 (patient isolate 1702) (domain or fragment) PDCIVVCDYKGCKENKNDENCKSKRTYSLPPDVNSTEIEVLFSGDNQEDIVEKLSSFCKNTNNENGENVEKWECYYESEHNNKCKMTSPKHKDEKRPTVMIFDEFFDFWVTHLIKDTIKWESDINDCINNTNVTDCDSACNENCKCFDEWVEKKEVEWGNVKKVLGNRSENLNIYYNKLNGIFSGFFFGVMHELKKKEAKQGVKAEEAQEAEETQEAQEEEAKWNKLTAKLQEIIDSSKGKADTANSQDAIKPLLEYIKETATTCIDNNSLAVENCPKTKINPC : 3640
CIDRα1.8b domain 2053-3 (patient isolate 2053) (domain or fragment) PICGVKCENKSCTDKENDDDCKNKKKYDPPKGVTPIDIPILYSGDKQGDITKKLEDFCYNRTKENEKTYQNWKCYYKDSEFNKCKMESKSGKSTTQEKIISFDEFFYLWVNNLLIDSIMWENDIKHCINNTNVTNCKNKCNENCKCFKNWVKKKEEEWTKVKQILGNRSENLNNYYNKLNSLFKGFFFEVVYKFNNKEEKWNKLTEKLEQKIGSSKGKEGVENPKDAIELLLDHLKENAITCKDNNSLEEDKNCPKIKINPC : 20200
CIDRα1.7 domain of PfEMP1 IT4var22 (domain or fragment, also called CIDRa1.7 IT4var22_IT4; IT4var22 (1.7)) PYCGLDCGGKTCTAKQEIYPDCVYNGAYEPPNGAETTEITVLYSADQEGDISNKLSEFCNDENNKNSQKWQCYYVSSENNGCKMEKKNANHTPEVKITKFHNFFEMWVTYLLTETITWKDKLKTCMNNTKTADCIHECNKNCVCFDKWVKQKEDEWNSIKKLFTKEKKMPKQYYGNINIYFESFFFHVMKKLNKEAKWNKLMDELRNKIELSKGNEGTKDLQDAIELLLEYLKEKSTICKDNNTNEACDPTVDPTKNPC : 61300
CIDRα1.6b domain GA018_ERS010570 (domain or fragment, also called CIDRa1.6b GA018_ERS010570; GA018 (1.6b)) PYCGLDCVGTECTAKEEIYPDCVYNGEYDPPKDVRPTEINVIDSGNAVNISEKLNDFCTNPTNPNDKIYQKWQCYYKSSKVNKCQMTSLTQTLQKHHYVMTFYIFFDLWVKNLLRDSVKWEIELKDCINNTNVTDCNNKCNKNCVCFDKWVKQKKKEWDSIKKLFKTEKDEMKKYYTNINKNFEFFFFRVMYELNNEEAKWNKLMENLRIKIKSSKRNKRTKDSEGVIKVLFDHLKETATICKDNNTNEACVSSQNATTNPC : 35100
CIDRα1.1 domain GA011_ERS009959 (domain or fragment, also called CIDRa1.1 GA011_ERS009959; GA011 (1.1)) PDCVVYCEGGECKENENGDNCRSEIIKEIVRSETPTVIDVLYSGNGQDHITEKLDHFCSSTNKEDRKYYKTLKCYNKNNDYNKCEMISWLYQDPKESNLMLSIQCFYSWAQNLLIDTIRWEHQLKDCINNTNVTDCKSNCNKNCKCYKKWIEQKGSEWQQVKQVLKKKDKNSENYYDKLKDVFDTLYFEVMHELNKGKEKGKSEELTEDLKKKFGPSKKNTDAADSKDAIEFLLDHLNDNAITCKDNNSLAVENCTRTKSNPC : 389
CIDRα1.5a domain 1965-2 (patient isolate 1965) (domain or fragment) PDCGVECKNGRCKKKTDADGNCGKTQIYDIPKDVTPTDINVLYSGDEYGDIAKRLSEFCRDSKKENGKNTEIWHCYYIGDKHNQCKMEKAVAENKHQTKITTFDFFFDLWIKNLLRDTINWKSQLKNCINNTNKTNCNKTCNENCKCFENWVNQKEKEWNNMKELFKNKNRTSQNYYNKLKSHFDNYFFLVINNVNKGEAKWKKFTDELRNKIDSSKAKNGTSDSQDSIKMLLEHLKEDGTTCTANNPDSICNTPGTDARSLEPASKIEPQNKDTRTNPC : 18900
CIDRα1.6b domain GA019_ERS010031 (domain or fragment, also called CIDRa1.6b GA019_ERS010031; GA019 (1.6b)) PYCGLDCVGKTCTAKQEIYPDCVYNGDYEPPNGAETTEITVLYNDNEGDMSKKLSQFCSNENKENIENYQKWKCYYKDRDDIECEMISSSQKDEKHRKVMIFYNFFDLWVKNLLRDSIKWEIELKDCINNTNVTDCKSVCNVNCECFDKWVKQKEKEWDSIKKLLKKKKNVSKKYYTNINKNFEFFFFRVMYELNNEEAKWNKLMENLRTKINSYKKNKRTKDSEGAIKVLFDHLKETATICKDNNTNEACVSSQNATTNPC : 37000
CIDRα1.1 domain 2110-3 (patient isolate 2110) (domain or fragment) CPDCVVECVGGECKQKTDDDKNCRSKIIEEILKGEEPTVIDVLYSGNGQGVITKKLHDFCSSTNKEDDKYYKKWKCYNKNSDYNNCELISSLSTDPNDPNVMLSIKCFDSWARNLLVDALKWEHQLKNCINNTNVTDCKSNCNNNCKCYEEWIKRKGREWKQVKGVIENNDEGSHYYYKNVKNLFYNFLYPVIYKLEKEEKNGKWDQFMEDLKKKIESSETNTHTTDSQDAIELLLDHLKENAITCKDNNSLEEDKNC : 15700

Proceeding to the next binder to report its kon.
Note kon for the binder shown: CIDRα1.6a domain of PfEMP1 HB3var02 (domain or fragment, also called CIDRa1.6a HB3var02_HB3; HB3var02 (1.6a)) PECGVQCSGTTCTPKKVIHPNCKDKETYEPGDAKTTDITVLYSGDEEGDIAQKLQDFCNDKNKENDENYEKWQCYYKSSEINKCQMTRSSKKVPKHRGVMSFYAFFDLWVKNLLIDSINWKNDLTNCINNTNVTDCNKDCNKNCVCFDQWVIKKEEEWKNVNKVFENKNIDLHDYYNKLNKHFEGYFFHVMKELNKEEKWYKLMEDLKEKIDFSKGKADGKNSEGAIKVLFDHLKEIAEKCIHNNSNESCEASTNRTPNPC
975
